Data origin: patent US9975888B2

# MEASURED_ON: CYP1A2 (Homo sapiens, UniProt P05177)
# Construct: 0.1 mg/mL protein human liver microsomes (BD Gentest); tissue BD Gentest; host or cells: human liver microsomes
# Sequence (P05177 whole entry): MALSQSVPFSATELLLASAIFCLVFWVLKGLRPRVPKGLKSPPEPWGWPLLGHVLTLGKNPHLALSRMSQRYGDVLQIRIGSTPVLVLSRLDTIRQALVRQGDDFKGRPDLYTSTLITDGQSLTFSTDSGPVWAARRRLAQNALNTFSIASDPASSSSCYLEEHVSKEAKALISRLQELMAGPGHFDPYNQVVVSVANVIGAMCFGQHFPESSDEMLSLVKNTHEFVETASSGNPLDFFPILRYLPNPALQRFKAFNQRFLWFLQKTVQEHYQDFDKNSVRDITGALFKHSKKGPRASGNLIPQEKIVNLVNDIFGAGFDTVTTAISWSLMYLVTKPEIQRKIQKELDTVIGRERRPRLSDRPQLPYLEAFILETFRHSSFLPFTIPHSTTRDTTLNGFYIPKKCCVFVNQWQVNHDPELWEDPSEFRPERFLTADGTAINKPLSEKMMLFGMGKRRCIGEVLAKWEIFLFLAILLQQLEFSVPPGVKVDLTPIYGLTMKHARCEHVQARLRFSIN
# TEST_DESCRIPTION: Cocktail assay for CYPs, phenacetin O-deethylation (CYP1A2), human liver microsomes
# Type: biochemical
# MEASUREMENT_PARAMETERS: 10 μM phenacetin, 0.1 mg/mL human liver microsomes, 10 min at 37° C.; read-out: CYP IC50 (nM) 1A2
Quick list: IC50 per entry.

# annotated cases, reported IC50 shown
{"COMPOUND": "O=S(=O)(c1ccc(N2CCC(O)CC2)nc1)N1CCCC1c1cccc(-c2cncn2CCc2ccc(F)cc2)c1 (single isomer, unassigned) [Compound 57a]", "MEASURED_ON": "CYP1A2 (Homo sapiens, UniProt P05177)", "IC50": "367 nM"}
{"COMPOUND": "O=C(c1cccnc1)N1CCCC1c1cccc(-c2cncn2CCc2ccc(F)cc2)c1 (single isomer, unassigned) [Compound 48a]", "MEASURED_ON": "CYP1A2 (Homo sapiens, UniProt P05177)", "IC50": "9300 nM"}
{"COMPOUND": "O=C(Oc1ccc(Cl)cc1)N1CCCC1c1ccccc1-c1cncn1CCc1ccc(F)cc1 (centres unmarked) [Compound 36]", "MEASURED_ON": "CYP1A2 (Homo sapiens, UniProt P05177)", "IC50": "7690 nM"}

Using the record for CC(=O)Nc1ncc(S(=O)(=O)NCc2ccc(-c3cncn3CCc3ccc(F)cc3)cn2)s1 [Compound 11] , state its measured IC50.
> 10000 nM

Look up and state reported IC50 for CN1CCCC1c1ccccc1-c1cncn1CCc1ccc(F)cc1 (single isomer, unassigned) [Compound 45a]
> 10000 nM
